These measurements were taken from ChEMBL document CHEMBL4041516.

target-or-test-system: Phosphatidylinositol 4,5-bisphosphate 3-kinase catalytic subunit alpha isoform (Homo sapiens)
Sequence (P42336 whole entry, canonical isoform): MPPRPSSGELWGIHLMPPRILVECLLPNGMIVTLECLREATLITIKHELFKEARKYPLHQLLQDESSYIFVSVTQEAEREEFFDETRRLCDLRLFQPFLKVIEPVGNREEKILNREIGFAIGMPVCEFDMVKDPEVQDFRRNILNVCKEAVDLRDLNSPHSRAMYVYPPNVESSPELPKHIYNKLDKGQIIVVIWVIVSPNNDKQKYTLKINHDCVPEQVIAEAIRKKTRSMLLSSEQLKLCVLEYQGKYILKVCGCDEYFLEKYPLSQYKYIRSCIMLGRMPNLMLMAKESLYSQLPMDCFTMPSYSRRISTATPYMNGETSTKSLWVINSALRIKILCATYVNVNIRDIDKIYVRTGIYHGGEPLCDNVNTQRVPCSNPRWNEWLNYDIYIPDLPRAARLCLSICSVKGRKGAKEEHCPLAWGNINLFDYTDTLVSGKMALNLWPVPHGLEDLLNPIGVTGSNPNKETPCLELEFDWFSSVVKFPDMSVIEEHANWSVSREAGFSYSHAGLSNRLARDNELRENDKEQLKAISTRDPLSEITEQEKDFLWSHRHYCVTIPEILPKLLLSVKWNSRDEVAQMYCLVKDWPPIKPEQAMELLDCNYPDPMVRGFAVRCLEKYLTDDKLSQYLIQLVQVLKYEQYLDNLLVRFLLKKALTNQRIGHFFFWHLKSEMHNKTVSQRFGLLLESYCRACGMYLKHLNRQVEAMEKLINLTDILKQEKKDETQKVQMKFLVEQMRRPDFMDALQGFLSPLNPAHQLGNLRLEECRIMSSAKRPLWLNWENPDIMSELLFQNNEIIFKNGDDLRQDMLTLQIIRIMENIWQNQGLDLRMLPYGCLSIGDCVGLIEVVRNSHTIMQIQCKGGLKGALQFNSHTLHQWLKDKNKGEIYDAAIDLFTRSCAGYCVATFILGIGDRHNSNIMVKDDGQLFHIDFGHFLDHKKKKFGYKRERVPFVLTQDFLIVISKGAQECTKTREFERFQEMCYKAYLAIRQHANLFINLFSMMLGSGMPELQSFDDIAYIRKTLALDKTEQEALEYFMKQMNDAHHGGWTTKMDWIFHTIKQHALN
assay-name: Inhibition of PI3Kalpha (unknown origin) using biotinylated PIP2 as substrate after 2 hrs by TR-FRET assay
observation-type: IC50 (nM)
Report as a plain number; the unit nM is understood.

Exercise: Fill blank: measured IC50 of the compound `COCCOCCNC(=O)CCCC#Cc1cccc2nc(Cn3nc(-c4cccc(O)c4)c4c(N)ncnc43)n(Cc3ccccc3Cl)c(=O)c12` is ____.
Key: 1490

====

Test system: KARPAS-422
assay-name: Antiproliferative activity against human KARPAS422 cells measured after 72 hrs by alamar blue assay
Format: functional, cell-based
test-parameters: KARPAS-422, 72 h
The following molecules are listed with their measured IC50 values.
Express the result in µM but write the number alone.

{"columns": ["smiles-code", "reported-value"],
 "data": [
  ["Cc1nc(N)nc(N2CCC[C@H]2c2nc3cccc(C#CCCCC(=O)N4CCCC4)c3c(=O)n2-c2ccccc2)c1C#N", 4.3],
  ["CC[C@H](Nc1ncnc2[nH]cnc12)c1nc2cccc(F)c2c(=O)n1-c1ccccc1", 8.1],
  ["N#Cc1c(N)ncnc1N1CCC[C@H]1c1nc2cccc(C#CCCCC(=O)N3CCOCC3)c2c(=O)n1-c1ccccc1", 11.6]
]}

Exercise: Item under review: `CC[C@H](Nc1nc(N)nc(N)c1C#N)c1nc2cccc(C#CCCCC(=O)N3CCOCC3)c2c(=O)n1-c1ccccc1` . Reported IC50?
Key: 2

Exercise: Entry `CC[C@H](Nc1nc(N)nc(N)c1C#N)c1nc2cccc(C#CCCCC(=O)N3CCCC3)c2c(=O)n1-c1ccccc1` has what IC50?
Key: 2.1
